# TEST_DETAILS: Phase I trial: clinical pharmacokinetics in plasma
# Assay type: in vivo, human
# CONDITIONS: human, plasma, oral, 100 mg, Single dose day 1, 100 mg, n=7, Median (Min, Max); read-out: Tmax
MEASURE_NAME: Tmax (h)
API: value field is a number in h; no unit string.

Ask: So what's the measured Tmax for this one? `Cc1c(C(=O)Nc2ccc(Oc3ccnc4cc(OCC(C)(C)O)ccc34)c(F)c2)c(=O)n(-c2ccccc2)n1C`
Result: 2

* * *

# TARGET: EphA6 (Homo sapiens)
# Sequence (Q9UF33 23-1036): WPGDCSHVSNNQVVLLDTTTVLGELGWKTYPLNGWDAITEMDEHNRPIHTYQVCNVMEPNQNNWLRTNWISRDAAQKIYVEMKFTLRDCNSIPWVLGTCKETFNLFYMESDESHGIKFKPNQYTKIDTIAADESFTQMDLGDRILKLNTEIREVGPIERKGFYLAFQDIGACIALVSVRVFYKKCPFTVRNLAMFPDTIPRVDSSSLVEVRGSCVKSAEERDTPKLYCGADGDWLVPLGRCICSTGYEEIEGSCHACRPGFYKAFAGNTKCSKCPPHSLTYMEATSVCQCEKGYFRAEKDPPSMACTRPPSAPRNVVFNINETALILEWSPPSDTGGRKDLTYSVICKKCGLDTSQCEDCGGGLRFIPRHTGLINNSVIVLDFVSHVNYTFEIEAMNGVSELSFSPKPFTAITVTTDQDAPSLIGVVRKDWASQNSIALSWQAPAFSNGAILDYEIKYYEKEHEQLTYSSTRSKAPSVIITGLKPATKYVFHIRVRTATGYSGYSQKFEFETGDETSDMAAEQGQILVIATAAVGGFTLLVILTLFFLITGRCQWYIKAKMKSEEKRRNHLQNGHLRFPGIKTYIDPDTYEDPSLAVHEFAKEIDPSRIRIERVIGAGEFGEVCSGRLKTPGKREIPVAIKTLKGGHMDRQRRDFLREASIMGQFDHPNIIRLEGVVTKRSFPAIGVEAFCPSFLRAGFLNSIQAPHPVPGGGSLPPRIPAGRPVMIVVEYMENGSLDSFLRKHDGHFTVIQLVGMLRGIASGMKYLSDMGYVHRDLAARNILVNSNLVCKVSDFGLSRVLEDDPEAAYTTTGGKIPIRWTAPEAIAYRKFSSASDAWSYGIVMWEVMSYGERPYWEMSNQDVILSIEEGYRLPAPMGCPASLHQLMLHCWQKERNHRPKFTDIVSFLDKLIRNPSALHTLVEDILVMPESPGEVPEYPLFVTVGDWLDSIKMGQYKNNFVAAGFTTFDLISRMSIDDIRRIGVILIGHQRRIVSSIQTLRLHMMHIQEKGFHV
MEASURE_NAME: pIC50
To interpret pIC50, take it as minus log10 of a concentration measured in moles per litre.

Ask: # lookup: pIC50 of Cc1c(C(=O)Nc2ccc(Oc3ccnc4cc(OCC(C)(C)O)ccc34)c(F)c2)c(=O)n(-c2ccccc2)n1C [CT053]
Result: 7.09

Recorded values, source paper PMC9632963.
